assay: Constant-force (CF) single-molecule optical tweezers folding assay of guanine-aptamer RNAs in guanine buffer; assay type: physicochemical; conditions: transition C′B (L2-L3 folding); zero force, from data at 8.5 pN; 3 mM Mg^2+, 200 nM G
Would you kindly list ΔG (0) for each of these molecules?
// units = kBT; emit number, no label

Find the recorded ΔG (0) belonging to m4: m4 mutant guanine sensing aptamer RNA (SEQ ID NO: 5); A59G/U67C in the P3 hairpin (nucleic acid, RNA, backbone and methylation of C not given here, A59G/U67C in the P3 hairpin) CACUCAUAUAAUCGCGUGGAUAUGGCACGCAAGUUUCUACCGGGCGCCGUAAACGUCCGACUAUGGGUG and report it. −6.1

// returns reported ΔG (0) for input m8: m8 mutant guanine sensing aptamer RNA (SEQ ID NO: 9); A19G and U77C in the P1 hairpin (nucleic acid, RNA, backbone and methylation of C not given here, A19G and U77C in the P1 hairpin) CACUCGUAUAAUCGCGUGGAUAUGGCACGCAAGUUUCUACCGGGCACCGUAAAUGUCCGACUACGGGUG −7.4

What value of ΔG (0) has been recorded for this entry: m6: m6 mutant guanine sensing aptamer RNA (SEQ ID NO: 7); U67A, shorter P3 hairpin and larger L3 loop (nucleic acid, RNA, backbone and methylation of C not given here, U67A, shorter P3 hairpin and larger L3 loop) CACUCAUAUAAUCGCGUGGAUAUGGCACGCAAGUUUCUACCGGGCACCGUAAAAGUCCGACUAUGGGUG −6.1

What value of ΔG (0) has been recorded for this entry: wt: 69-nucleotide full-length wild-type guanine sensing aptamer RNA sequence from xpt-pbuX operon in B. subtilis (SEQ ID NO: 1) (nucleic acid, RNA, backbone and methylation of C not given here) CACUCAUAUAAUCGCGUGGAUAUGGCACGCAAGUUUCUACCGGGCACCGUAAAUGUCCGACUAUGGGUG −7.1
